The values you see were collected from patent US9981940B2.

System: Phaedon cochleariae
Experiment: Phaedon cochleariae spray test (PHAECO)
Assay type: in vivo
Settings: application rate of 500 g/ha; after 7 days
quantityKind: efficacy

* Cc1cc(F)c(-n2ncn(-c3ccc(F)cc3)c2=O)cc1SCC(F)(F)F [Example 349] | 100%
* Cc1cc(F)c(-n2ncn(-c3ccccc3)c2=O)cc1SCC(F)(F)F [Example 351] | 100%
* COC1=CC(=O)N(c2ccc(C(F)(F)F)c([S+]([O-])CC(F)(F)F)c2)C1 (centres unmarked) [Example 321] | 100%
* Cc1cc(F)c(-n2nc(C)n(N)c2=O)cc1[S+]([O-])CC(F)(F)F (centres unmarked) [Example 209] | 83%
* CCCn1c(OC)nn(-c2cc([S+]([O-])CC(F)(F)F)c(C)cc2F)c1=O (centres unmarked) [Example 411] | 100%
* COc1nn(-c2cc([S+]([O-])CC(F)(F)F)c(C)cc2F)c(=O)n1C (centres unmarked) [Example 94] | 83%
* CNc1nn(-c2cc([S+]([O-])CC(F)(F)F)c(C)cc2F)c(=O)n1N (centres unmarked) [Example 219] | 100%
* COCCOC1=CC(=O)N(c2cc(SCC(F)(F)F)c(C)cc2F)C1 [Example 328] | 100%
* Cc1cc(F)c(-n2nc(Cl)n(C)c2=O)cc1[S+]([O-])CC(F)(F)F (centres unmarked) [Example 437] | 83%
* C=CCn1c(OC)nn(-c2ccc(C)c([S+]([O-])CC(F)(F)F)c2)c1=O (centres unmarked) [Example 179] | 100%

The reported efficacy of the compound Cc1cc(F)c(-n2nc(C)n(-c3ccccc3)c2=O)cc1SCC(F)(F)F [Example 350] was 83%

The reported efficacy of the compound Cc1cc(F)c(-n2nc(Cl)n(C)c2=O)cc1SCC(F)(F)F [Example 435] was 83%

The reported efficacy of the compound CCOC1=CC(=O)N(c2cc(SCC(F)(F)F)c(C)cc2F)C1 [Example 330] was 100%

The reported efficacy of the compound Cc1cc(F)c(N2CC(OCC3CC3)=CC2=O)cc1[S+]([O-])CC(F)(F)F (centres unmarked) [Example 332] was 83%

The reported efficacy of the compound COc1ccc(-n2nc(OC)n(C3CC3)c2=O)cc1[S+]([O-])CC(F)(F)F (centres unmarked) [Example 109] was 100%

The reported efficacy of the compound Cc1ccc(-n2nc(OC(C)(C)C)n(C)c2=O)cc1SCC(F)(F)F [Example 154] was 83%

The reported efficacy of the compound COc1nn(-c2cc(SCC(F)(F)F)c(C)cc2F)c(=O)n1CC1CC1 [Example 390] was 100%

* * *

Experiment: log P by HPLC (OECD Guideline 117), method [a] acidic range
Format: physicochemical
Conditions: HPLC, method [a] acidic range
quantityKind: logP[a]
Answer with a bare number; do not write a unit.

# annotated cases, reported logP[a] shown
- COc1nn(-c2ccc(C(F)(F)F)c(SCC(F)(F)F)c2)c(=O)n1C1CC1 [Example 144]: 4.14
- Cc1cc(F)c(-n2nc(NC(C)C)n(N)c2=O)cc1[S+]([O-])CC(F)(F)F (centres unmarked) [Example 225]: 1.87
- O=c1n(-c2ccc(Br)c(SCC(F)(F)F)c2)nc(OCC(F)(F)F)n1C1CC1 [Example 378]: 4.43
- Cc1cc(C)c(-n2ncn(Cc3ccccc3)c2=O)cc1SCC(F)(F)F [Example 373]: 3.55

The reported logP[a] of the compound CCCCOc1nn(-c2cc(SCC(F)(F)F)c(C)cc2F)c(=O)n1C1CC1 [Example 125] was 4.41

The reported logP[a] of the compound Cc1cc(F)c(-n2ccn(C(C)(C)C)c2=O)cc1[S+]([O-])CC(F)(F)F (centres unmarked) [Example 489] was 2.50

The reported logP[a] of the compound Cc1cc(F)c(-n2nc(C(C)C)n(C3CC3)c2=O)cc1[S+]([O-])CC(F)(F)F (centres unmarked) [Example 43] was 2.52

The reported logP[a] of the compound Cc1cc(F)c(-n2nc(N(C)C)n(C3CC3)c2=O)cc1SCC(F)(F)F [Example 193] was 3.20

The reported logP[a] of the compound O=c1n(-c2cc([S+]([O-])CC(F)(F)F)c(Br)cc2F)nc(OCC(F)(F)F)n1C1CC1 (racemic) [Example 383] was 3.27

* * *

Experiment: log P by HPLC (OECD Guideline 117), method [b] neutral range
Assay type: physicochemical
Conditions: HPLC, method [b] neutral range
quantityKind: logP[b]
Answer with a bare number; do not write a unit.

# annotated cases, reported logP[b] shown
- Cc1cc(F)c(-n2nc(C(C)(C)C)n(C3CC3)c2=O)cc1[S+]([O-])CC(F)(F)F (racemic): 2.97
- Cc1cc(Cl)c([S+]([O-])CC(F)(F)F)cc1-n1nc(OCC(F)(F)F)n(C2CC2)c1=O (racemic): 2.97
- COc1nn(-c2ccc(Br)c([S+]([O-])CC(F)(F)F)c2)c(=O)n1C1CC1 (stereo not shown): 2.95

Note: attention shifts to another entry.
The reported logP[b] of the compound Cc1cc(F)c(-n2nc([S+]([O-])C(C)C)n(C3CC3)c2=O)cc1SCC(F)(F)F (stereo not shown) was 2.92

* * *

Test: log P by HPLC (OECD Guideline 117), method [b] neutral range
Assay type: physicochemical
Details: HPLC, method [b] neutral range
The label depends only on logP[b]: condition met if it is at least 3, condition not met if it is smaller.

INPUT: Test whether the molecule CCn1c([S+]([O-])CC)nn(-c2cc(SCC(F)(F)F)c(C)cc2F)c1=O (centres unmarked) [Example 253] records logP[b] of 3 or higher.
OUTPUT: condition not met

INPUT: Test whether the molecule Cc1cc(F)c(N2CC(OCC3CC3)=CC2=O)cc1[S+]([O-])CC(F)(F)F (centres unmarked) [Example 332] records logP[b] of 3 or higher.
OUTPUT: condition not met

INPUT: Test whether the molecule COc1nn(-c2ccc(C(F)(F)F)c(SCC(F)(F)F)c2)c(=O)n1C1CC1 [Example 144] records logP[b] of 3 or higher.
OUTPUT: condition met

INPUT: Test whether the molecule CC1=C(C)C(=O)N(c2cc(SCC(F)(F)F)c(C)cc2C)C1=O [Example 342] records logP[b] of 3 or higher.
OUTPUT: condition met

INPUT: Test whether the molecule Cc1cc(F)c(-n2nc(Oc3ccccc3)n(C)c2=O)cc1[S+]([O-])CC(F)(F)F (centres unmarked) [Example 159] records logP[b] of 3 or higher.
OUTPUT: condition not met

* * *

Assay: log P by HPLC (OECD Guideline 117), method [a] acidic range
Format: physicochemical
Details: HPLC, method [a] acidic range
Measured logP[a], listed per entry.
Answer with a bare number; do not write a unit.

# annotated cases, reported logP[a] shown
* C=CCSc1nn(-c2cc([S+]([O-])CC(F)(F)F)c(C)cc2F)c(=O)n1C (racemic) | 2.55
* Cc1cc(F)c(-n2nc(C3CC3)oc2=O)cc1SCC(F)(F)F | 3.62
* Cc1cc(F)c(-n2nc(-c3cccc(F)c3)n(C3CC3)c2=O)cc1[S+]([O-])CC(F)(F)F (racemic) | 2.94
* Cc1cc(F)c(-n2ncn(-c3ccccc3)c2=O)cc1[S+]([O-])CC(F)(F)F (racemic) | 2.38

Note: attention shifts to another entry.
The reported logP[a] of the compound COC1=CC(=O)N(c2ccc(C)c(SCC(F)(F)F)c2)C1 was 2.98

* * *

Assay: log P by HPLC (OECD Guideline 117), method [a] acidic range
Format: physicochemical
Settings: HPLC, method [a] acidic range
quantityKind: logP[a]
Answer with a bare number; do not write a unit.

The reported logP[a] of the compound COn1c(C(C)C)nn(-c2cc(SCC(F)(F)F)c(C)cc2F)c1=O was 3.52

The reported logP[a] of the compound CSc1nn(-c2cc(SCC(F)(F)F)c(C)cc2F)c(=O)n1C1CC1 was 3.56

The reported logP[a] of the compound Cc1cc(F)c(-n2nc(N(C)C)n(C)c2=O)cc1SCC(F)(F)F was 2.84

The reported logP[a] of the compound CC1=CC(=O)N(c2cc(SCC(F)(F)F)c(C)cc2F)C1=O was 3.37

* * *

Test: log P by HPLC (OECD Guideline 117), method [a] acidic range
Format: physicochemical
Settings: HPLC, method [a] acidic range
Measured logP[a], listed per entry.
Answer with a bare number; do not write a unit.

* C=CCOc1nn(-c2cc(SCC(F)(F)F)c(C)cc2F)c(=O)n1C1CC1 | 3.74
* CCn1c(OC)nn(-c2cc(SCC(F)(F)F)c(C)cc2F)c1=O | 3.16
* COc1nn(-c2cc(SCC(F)(F)F)c(Cl)cc2Cl)c(=O)n1C1CC1 | 3.46
* Cc1cc(F)c(-n2nc(OCC(Cl)(Cl)Cl)n(C)c2=O)cc1[S+]([O-])CC(F)(F)F (centres unmarked) | 3.13

Note: attention shifts to another entry.
The reported logP[a] of the compound Cc1cc(F)c(-n2ncn(Cc3ccccc3)c2=O)cc1SCC(F)(F)F was 3.38
